Entries annotated with measured Kd
Molecular target: Tyrosine-protein kinase ABL1 [229-512] (Homo sapiens, UniProt P00519)
Sequence (P00519 whole entry): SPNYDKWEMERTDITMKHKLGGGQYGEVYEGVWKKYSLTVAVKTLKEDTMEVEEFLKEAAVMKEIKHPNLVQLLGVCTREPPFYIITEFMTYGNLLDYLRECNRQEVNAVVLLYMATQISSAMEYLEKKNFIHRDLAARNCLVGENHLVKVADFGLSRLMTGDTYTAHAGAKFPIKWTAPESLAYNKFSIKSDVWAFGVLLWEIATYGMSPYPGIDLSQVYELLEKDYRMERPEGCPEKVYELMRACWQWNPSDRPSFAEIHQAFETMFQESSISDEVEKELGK
# number only, unit nM dropped from output

Cc1nc(Nc2ncc(C(=O)Nc3cc(NC(=O)c4cccc(C(F)(F)F)c4)ccc3C)s2)cc(N2CCN(CCO)CC2)n1 [DAS-DFGO-II] :: 2

Looking for the measured Kd of Cc1nc(Nc2ncc(C(=O)Nc3cccc(NC(=O)c4cccc(C(F)(F)F)c4)c3)s2)cc(N2CCN(CCO)CC2)n1 [DAS-DFGO-I] , can you help?
1.8

Hello, the source for this data is BindingDB's records for doi:10.1021/acschembio.5b01018, in case you need it.
